SYSTEM: Neuropeptide S receptor (Homo sapiens) (UniProt Q6W5P4)
Sequence (Q6W5P4 whole entry, looked up): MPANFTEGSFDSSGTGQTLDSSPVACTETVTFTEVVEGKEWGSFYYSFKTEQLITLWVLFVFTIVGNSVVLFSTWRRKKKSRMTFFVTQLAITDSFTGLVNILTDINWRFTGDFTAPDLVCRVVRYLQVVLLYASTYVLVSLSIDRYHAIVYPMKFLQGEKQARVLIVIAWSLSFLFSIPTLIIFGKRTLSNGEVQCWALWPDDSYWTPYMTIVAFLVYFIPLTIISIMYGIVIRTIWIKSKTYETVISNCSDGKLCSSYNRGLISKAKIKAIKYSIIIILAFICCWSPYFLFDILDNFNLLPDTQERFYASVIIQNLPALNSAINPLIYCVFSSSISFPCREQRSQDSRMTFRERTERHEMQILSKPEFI
ASSAY SUMMARY: Confirmation Concentration-Response Assay for Antagonists of the Neuropeptide S Receptor: cAMP Signal Transduction; also: potency is read from the fitted curve at half-maximal effect
COND: CHO-NPSR cells, cAMP TR-FRET, antagonist mode; series mostly up to 22.3 µM
Results filed as inconclusive are left out. Active and inactive are the calls of the source. Calls follow the shape of the dose curve; as a rule, active = well fitted inhibition curve with a large enough effect in the main read-out, with a control signal flat; inconclusive = small, poorly fitted or top-dose-only effect, or a change in a side signal; inactive = flat fitted curve, though single readings scatter.
READOUT: Potency

O=C(Nc1cc(=O)[nH]c2nc(-c3ccc(Cl)cc3)nn12)c1ccccc1 ... 3.98 µM (active)
O=C(O)C1CCN(c2nc(-c3ccccc3)nc3c2oc2ccccc23)CC1 ... inactive
Cc1nnc(NC(=O)c2cccc(S(=O)(=O)N3CCc4ccccc43)c2)s1 ... inactive
N#Cc1c(-c2ccccc2)c(-c2ccccc2)nn(CC(=O)NNC(=O)Nc2ccc(Cl)c(Cl)c2)c1=O ... inactive
